# tested-system: hH3R (Homo sapiens, UniProt Q9Y5N1)
# Construct: expressed in transfected cells; membrane fractions
# Sequence (Q9Y5N1 whole entry): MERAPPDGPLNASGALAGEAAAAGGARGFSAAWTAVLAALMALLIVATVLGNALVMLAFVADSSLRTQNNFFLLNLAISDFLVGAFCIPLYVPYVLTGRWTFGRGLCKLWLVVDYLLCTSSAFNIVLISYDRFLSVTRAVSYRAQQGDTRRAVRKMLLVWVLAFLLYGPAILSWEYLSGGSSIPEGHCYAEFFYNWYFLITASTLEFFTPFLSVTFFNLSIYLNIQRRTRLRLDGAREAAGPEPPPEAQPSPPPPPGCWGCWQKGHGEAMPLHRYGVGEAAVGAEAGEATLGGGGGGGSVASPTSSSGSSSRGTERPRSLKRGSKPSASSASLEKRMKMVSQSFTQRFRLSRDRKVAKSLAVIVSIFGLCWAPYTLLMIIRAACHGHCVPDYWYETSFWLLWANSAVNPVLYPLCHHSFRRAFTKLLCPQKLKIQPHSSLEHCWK
# experimental-protocol: hH3R radioligand displacement binding assay ([3H]-Nα-methylhistamine, HEK-293 cell membranes)
# condition-parameters: [3H]-Nα-methylhistamine; HEK-293 membranes; read-out: hH3R -log(Ki) ± sem (converted)
Output True for records whose Ki is lower than 2 µM, False for records at or above 2 µM.

[
  {
    "compound": "[H]/N=C(/N)N(CCCCN1CCN(CC2CCC(COc3ccccc3)CC2)CC1)Cc1ccc(C(F)(F)F)cc1 (stereo not shown)",
    "tested-system": "hH3R (Homo sapiens, UniProt Q9Y5N1)",
    "assigned-category": "False"
  },
  {
    "compound": "[H]/N=C(\\N)N(CCCCN1CCN(CC2CCC(COc3ccccc3)CC2)CC1)Cc1ccc(C(F)(F)F)cc1 (stereo not shown)",
    "tested-system": "hH3R (Homo sapiens, UniProt Q9Y5N1)",
    "assigned-category": "True"
  },
  {
    "compound": "N=C(N)N(CCCCN1CCN(C[C@H]2CC[C@@H](COc3ccccc3)CC2)CC1)Cc1ccccc1",
    "tested-system": "hH3R (Homo sapiens, UniProt Q9Y5N1)",
    "assigned-category": "False"
  }
]

Dear reviewer, please state whether `N=C(N)N(CCCCN1CCN(Cc2ccc(Oc3ccccc3)cc2)CC1)Cc1ccc(C(F)(F)F)cc1` has Ki strictly beneath 2 µM.
True

Dear reviewer, please state whether `N=C(N)N(CCCCN1CCN(Cc2ccc(COc3ccccc3)cc2)CC1)Cc1ccccc1` has Ki strictly beneath 2 µM.
True

Dear reviewer, please state whether `N=C(N)N(CCCCN1CCN(Cc2ccc(COc3ccccc3)cc2)CC1)Cc1ccc(C(F)(F)F)cc1` has Ki strictly beneath 2 µM.
True

----------
Let's look at some compounds and their measured Kb.
# tested-system: H1R (Cavia porcellus, UniProt P31389)
# Construct: from tissue; host or cells: isolated distal ileum of male guinea pigs
# Sequence (P31389 whole entry): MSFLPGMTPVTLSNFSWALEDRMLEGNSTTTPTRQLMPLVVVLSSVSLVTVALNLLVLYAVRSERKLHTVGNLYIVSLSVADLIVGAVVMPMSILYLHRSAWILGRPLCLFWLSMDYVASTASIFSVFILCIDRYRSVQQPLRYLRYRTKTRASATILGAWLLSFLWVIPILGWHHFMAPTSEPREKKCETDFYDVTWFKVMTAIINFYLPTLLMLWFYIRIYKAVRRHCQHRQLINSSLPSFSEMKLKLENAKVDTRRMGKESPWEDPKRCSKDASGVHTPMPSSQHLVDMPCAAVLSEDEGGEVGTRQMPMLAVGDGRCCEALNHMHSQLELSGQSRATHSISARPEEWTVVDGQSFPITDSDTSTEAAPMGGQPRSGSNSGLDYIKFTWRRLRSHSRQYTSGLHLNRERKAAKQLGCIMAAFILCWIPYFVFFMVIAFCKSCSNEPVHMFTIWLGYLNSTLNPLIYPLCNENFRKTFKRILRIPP
# experimental-protocol: Ex vivo screening of histamine H1R antagonists on guinea pig ileum, variant with 0.05 μM atropine
# condition-parameters: isolated guinea pig ileum, histamine as agonist, read-out: H1R+atropine pA2 gpi ± sem (converted)
# Experimental: The second histamine receptor located in the guinea pig ileum is H1R. […] The H1R antagonistic effect was measured on isolated guinea pig ileum stimulated to contract by histamine.[37] […] Male guinea pigs, weighing 300–400 g, were euthanized by a blow to the neck. […] The first cumulative concentration–response curve was determined for histamine (10 nM to 10 mM) at increasing concentrations spaced by 3- or 3.3-fold. […] The pA2 values were calculated according to Arunlakshana and Schild.[37] […]
Dear colleague, please return just the value in nM, with no unit written.

[
  {
    "compound": "N=C(N)N(CCCCN1CCN(C[C@H]2CC[C@@H](COc3ccccc3)CC2)CC1)Cc1ccccc1",
    "tested-system": "H1R (Cavia porcellus, UniProt P31389)",
    "display-unit": "nM",
    "Kb": 257
  },
  {
    "compound": "N=C(N)N(CCCCN1CCN(Cc2ccc(Oc3ccccc3)cc2)CC1)Cc1ccc(C(F)(F)F)cc1",
    "tested-system": "H1R (Cavia porcellus, UniProt P31389)",
    "display-unit": "nM",
    "Kb": 97.7
  },
  {
    "compound": "N=C(N)N(CCCCN1CCN(Cc2ccc(COc3ccccc3)cc2)CC1)Cc1ccc(C(F)(F)F)cc1",
    "tested-system": "H1R (Cavia porcellus, UniProt P31389)",
    "display-unit": "nM",
    "Kb": 151
  },
  {
    "compound": "N=C(N)N(CCCCN1CCN(Cc2ccc(COc3ccccc3)cc2)CC1)Cc1ccccc1",
    "tested-system": "H1R (Cavia porcellus, UniProt P31389)",
    "display-unit": "nM",
    "Kb": 100
  }
]

Notebook: [H]/N=C(\N)N(CCCCN1CCN(CC2CCC(COc3ccccc3)CC2)CC1)Cc1ccc(C(F)(F)F)cc1 (stereo not shown) , Kb read as 120

Notebook: [H]/N=C(/N)N(CCCCN1CCN(CC2CCC(COc3ccccc3)CC2)CC1)Cc1ccc(C(F)(F)F)cc1 (stereo not shown) , Kb read as 151

Notebook: `N=C(N)N(CCCCN1CCN(C[C@H]2CC[C@H](COc3ccccc3)CC2)CC1)Cc1ccccc1` , Kb read as 166

----------
# tested-system: hM5R (Homo sapiens, UniProt P08912)
# Construct: host or cells: CHO cells, stably transfected; crude membranes
# Sequence (P08912 whole entry): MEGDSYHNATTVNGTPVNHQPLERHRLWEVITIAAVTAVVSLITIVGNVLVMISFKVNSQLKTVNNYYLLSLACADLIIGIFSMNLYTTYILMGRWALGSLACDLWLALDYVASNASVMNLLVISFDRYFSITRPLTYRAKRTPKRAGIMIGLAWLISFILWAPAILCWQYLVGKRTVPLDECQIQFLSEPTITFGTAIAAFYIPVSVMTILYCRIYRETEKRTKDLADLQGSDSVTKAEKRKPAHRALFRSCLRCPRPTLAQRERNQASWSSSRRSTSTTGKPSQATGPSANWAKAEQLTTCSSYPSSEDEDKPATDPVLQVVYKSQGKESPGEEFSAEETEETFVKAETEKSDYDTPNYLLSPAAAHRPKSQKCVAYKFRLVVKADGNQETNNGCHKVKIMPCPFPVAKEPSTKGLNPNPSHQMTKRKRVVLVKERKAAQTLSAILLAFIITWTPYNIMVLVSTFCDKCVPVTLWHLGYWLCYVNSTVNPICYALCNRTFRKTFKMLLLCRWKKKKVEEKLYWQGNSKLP
# experimental-protocol: hM5R radioligand binding ([3H]NMS, CHO cell membranes)
# condition-parameters: hM5R -log(Ki) ± sem
quantity-kind: pKi
Notebook: values listed as pKi are -log10 of the concentration (mol/L).

Notebook: `N=C(N)N(CCCCN1CCN(CCCCCCCOc2ccccc2)CC1)Cc1ccccc1` , pKi read as 6.33

----------
# tested-system: hM1R (Homo sapiens, UniProt P11229)
# Construct: host or cells: CHO cells, stably transfected; crude membranes
# Sequence (P11229 1-460): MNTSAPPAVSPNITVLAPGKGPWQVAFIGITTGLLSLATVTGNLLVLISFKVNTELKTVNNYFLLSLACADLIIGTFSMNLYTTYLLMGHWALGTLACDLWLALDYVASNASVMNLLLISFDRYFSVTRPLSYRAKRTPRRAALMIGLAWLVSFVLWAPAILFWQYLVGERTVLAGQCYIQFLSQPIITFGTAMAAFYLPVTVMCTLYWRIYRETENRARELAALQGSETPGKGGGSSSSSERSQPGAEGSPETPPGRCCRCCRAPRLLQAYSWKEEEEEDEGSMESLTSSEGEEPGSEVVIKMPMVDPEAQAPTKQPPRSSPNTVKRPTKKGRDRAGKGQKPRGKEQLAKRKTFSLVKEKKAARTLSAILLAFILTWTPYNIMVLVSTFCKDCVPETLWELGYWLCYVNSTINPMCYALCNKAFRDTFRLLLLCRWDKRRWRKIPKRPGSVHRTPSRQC
# experimental-protocol: hM1R radioligand binding ([3H]NMS, CHO cell membranes)
# condition-parameters: hM1R -log(Ki) ± sem
quantity-kind: Ki (nM)
Dear colleague, please return just the value in nM, with no unit written.

Notebook: `N=C(N)N(CCCCN1CCN(CCCCCCCOc2ccccc2)CC1)Cc1ccccc1` , Ki read as 141
